- System: Enterococcus faecalis
- ASSAY_NOTES: Antibacterial activity against vancomycin-resistant Enterococcus faecalis MGH2 EF1 by microbroth technology
- Format: functional
Below, each entry is listed with its recorded MIC90.

{"MOLECULE": "NC(=O)[C@H]1CN(c2cc(F)c(N3CCOCC3)c(F)c2)C(=O)O1", "MIC90 / µg/mL": 8}
{"MOLECULE": "CC(=O)NC[C@H]1CN(c2ccc(N3CCOCC3)c(F)c2)C(=O)O1", "MIC90 / µg/mL": 2}
{"MOLECULE": "NC(=O)[C@H]1CN(c2ccc([C@H]3CC[S@+]([O-])CC3)c(F)c2)C(=O)O1", "MIC90 / µg/mL": 4}
{"MOLECULE": "NC(=O)[C@H]1CN(c2ccc(C3CCS(=O)(=O)CC3)c(F)c2)C(=O)O1", "MIC90 / µg/mL": 2}
{"MOLECULE": "NC(=O)[C@H]1CN(c2cc(F)c(C3CC[S+]([O-])CC3)c(F)c2)C(=O)O1 (stereo not given in full)", "MIC90 / µg/mL": 2}

---

- ASSAY_NOTES: Volume of distribution at steady state in dog at 4 mg/kg, iv
- Format: ADME, organism-based, Canis lupus familiaris
- Set-up: dose 4 mg/kg, route intravenous
- RUN_PARAMETERS: in vivo, read-out: Vdss

{"CHEMICAL_SMILES": "NC(=O)[C@H]1CN(c2ccc([C@H]3CC[S@+]([O-])CC3)c(F)c2)C(=O)O1", "Vd (L/kg)": 0.7}

---

- ASSAY_NOTES: Clearance in mouse at 4 mg/kg, iv
- Type: ADME, organism-based
- Parameters: dose 4 mg/kg, route intravenous
- RUN_PARAMETERS: in vivo

{"CHEMICAL_SMILES": "NC(=O)[C@H]1CN(c2ccc([C@H]3CC[S@+]([O-])CC3)c(F)c2)C(=O)O1", "VALUE_UNITS": "mL/min/kg", "clearance": 25.2}

---

- ASSAY_SYSTEM: Cytochrome P450 2D6 (Homo sapiens, UniProt P10635)
- Sequence (P10635 whole entry): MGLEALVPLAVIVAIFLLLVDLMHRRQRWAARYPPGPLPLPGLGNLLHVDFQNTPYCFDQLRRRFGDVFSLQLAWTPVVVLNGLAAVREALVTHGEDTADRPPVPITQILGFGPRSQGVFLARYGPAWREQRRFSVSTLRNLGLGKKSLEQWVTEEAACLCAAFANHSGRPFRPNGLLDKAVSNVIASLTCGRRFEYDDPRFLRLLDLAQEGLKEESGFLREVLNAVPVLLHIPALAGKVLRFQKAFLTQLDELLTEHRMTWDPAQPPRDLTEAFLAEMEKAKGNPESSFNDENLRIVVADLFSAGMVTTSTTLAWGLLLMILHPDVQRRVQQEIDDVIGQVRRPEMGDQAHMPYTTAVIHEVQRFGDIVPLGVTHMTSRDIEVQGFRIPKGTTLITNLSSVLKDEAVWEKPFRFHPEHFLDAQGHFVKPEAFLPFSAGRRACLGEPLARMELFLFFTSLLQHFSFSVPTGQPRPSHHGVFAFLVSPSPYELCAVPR
pIC50: −log10 of the molar value.
MEASURED_ATTRIBUTE: pIC50

{"CHEMICAL_SMILES": "NC(=O)[C@H]1CN(c2ccc([C@H]3CC[S@+]([O-])CC3)c(F)c2)C(=O)O1", "MEASURED_ATTRIBUTE": "pIC50", "REPORTED_MEASUREMENT": "< 3.05"}

---

- System: Rattus norvegicus
- ASSAY_NOTES: Effect on hematology in Sprague-Dawley rat assessed as increase in hematocrit at 200 mg/kg/day, po after 14 days
- Format: ADME, organism-based
- Set-up: route oral
- RUN_PARAMETERS: in vivo, 336 h

{"CHEMICAL_SMILES": "CC(=O)NC[C@H]1CN(c2ccc(N3CCOCC3)c(F)c2)C(=O)O1", "Activity [%]": -9}

---

- Tested on: Haemophilus influenzae
- ASSAY_NOTES: Antibacterial activity against Haemophilus influenzae by micro-broth technology
- Type: functional

{"COMPOUND": "NC(=O)[C@H]1CN(c2ccc(C3CCS(=O)(=O)CC3)c(F)c2)C(=O)O1", "ASSAY_SYSTEM": "Haemophilus influenzae", "MIC": "> 8 µg/mL"}
{"COMPOUND": "NC(=O)[C@H]1CN(c2ccc([C@H]3CC[S@+]([O-])CC3)c(F)c2)C(=O)O1", "ASSAY_SYSTEM": "Haemophilus influenzae", "MIC": "> 8 µg/mL"}
{"COMPOUND": "NC(=O)[C@H]1CN(c2ccc(C3CCOCC3)c(F)c2)C(=O)O1", "ASSAY_SYSTEM": "Haemophilus influenzae", "MIC": "> 8 µg/mL"}
{"COMPOUND": "NC(=O)[C@H]1CN(c2cc(F)c(C3CCS(=O)(=O)CC3)c(F)c2)C(=O)O1", "ASSAY_SYSTEM": "Haemophilus influenzae", "MIC": "> 8 µg/mL"}
{"COMPOUND": "NC(=O)[C@H]1CN(c2cc(F)c(C3CC[S+]([O-])CC3)c(F)c2)C(=O)O1 (some centres not stated)", "ASSAY_SYSTEM": "Haemophilus influenzae", "MIC": "> 8 µg/mL"}
{"COMPOUND": "NC(=O)[C@H]1CN(c2cc(F)c(N3CCOCC3)c(F)c2)C(=O)O1", "ASSAY_SYSTEM": "Haemophilus influenzae", "MIC": "> 8 µg/mL"}
{"COMPOUND": "NC(=O)[C@H]1CN(c2ccc(N3CCOCC3)c(F)c2)C(=O)O1", "ASSAY_SYSTEM": "Haemophilus influenzae", "MIC": "> 8 µg/mL"}
